conditions: in methanol, 293.15 K
property: solubility (mole fraction)
# answer = number (no unit)

INPUT: I'd like to know its solubility (mole fraction). The compound in question is CN[C@@H]1[C@H](O)[C@H](NC)[C@H]2O[C@@]3(O)C(=O)C[C@@H](C)O[C@H]3O[C@@H]2[C@H]1O.Cl.Cl.O.O.O.O.O
OUTPUT: 0.0226

###

conditions: in methanol, 278.15 K
property: solubility (mole fraction)
Please reply with the value in numeric form only.

INPUT: State the recorded solubility (mole fraction) for this entry: CN[C@@H]1[C@H](O)[C@H](NC)[C@H]2O[C@@]3(O)C(=O)C[C@@H](C)O[C@H]3O[C@@H]2[C@H]1O.Cl.Cl.O.O.O.O.O
OUTPUT: 0.00988

###

conditions: in ethanol, 288.15 K
property: solubility (mole fraction)
Answer field: number only, no words.

INPUT: So what's the measured solubility (mole fraction) for this one? CN[C@@H]1[C@H](O)[C@H](NC)[C@H]2O[C@@]3(O)C(=O)C[C@@H](C)O[C@H]3O[C@@H]2[C@H]1O.Cl.Cl.O.O.O.O.O
OUTPUT: 0.00443

###

details: in ethanol, 293.15 K
property: solubility (mole fraction)
No unit in the answer, please; the number alone is enough.

INPUT: Report solubility (mole fraction) for CN[C@@H]1[C@H](O)[C@H](NC)[C@H]2O[C@@]3(O)C(=O)C[C@@H](C)O[C@H]3O[C@@H]2[C@H]1O.Cl.Cl.O.O.O.O.O please.
OUTPUT: 0.00484

###

settings: in n-propanol, 278.15 K
property: solubility (mole fraction)
Would you mind answering with just the numeric figure?

INPUT: Entry CN[C@@H]1[C@H](O)[C@H](NC)[C@H]2O[C@@]3(O)C(=O)C[C@@H](C)O[C@H]3O[C@@H]2[C@H]1O.Cl.Cl.O.O.O.O.O has what solubility (mole fraction)?
OUTPUT: 0.00098

###

details: in n-propanol, 303.15 K
property: solubility (mole fraction)
Please respond with just the number, no unit label.

INPUT: Which value of solubility (mole fraction) has been reported for CN[C@@H]1[C@H](O)[C@H](NC)[C@H]2O[C@@]3(O)C(=O)C[C@@H](C)O[C@H]3O[C@@H]2[C@H]1O.Cl.Cl.O.O.O.O.O in the records?
OUTPUT: 0.00336

###

settings: in isopropanol, 308.15 K
property: solubility (mole fraction)
// no unit, no text: just the number

INPUT: Looking for the measured solubility (mole fraction) of CN[C@@H]1[C@H](O)[C@H](NC)[C@H]2O[C@@]3(O)C(=O)C[C@@H](C)O[C@H]3O[C@@H]2[C@H]1O.Cl.Cl.O.O.O.O.O , can you help?
OUTPUT: 0.00101

###

conditions: in isopropanol, 278.15 K
property: solubility (mole fraction)
Give the value as a plain number.

INPUT: Report solubility (mole fraction) for CN[C@@H]1[C@H](O)[C@H](NC)[C@H]2O[C@@]3(O)C(=O)C[C@@H](C)O[C@H]3O[C@@H]2[C@H]1O.Cl.Cl.O.O.O.O.O please.
OUTPUT: 0.00031
